system: BGC-823; experiment: Cytotoxicity against human BGC823 cells after 96 hrs by MTT assay; format: functional, cell-based; conditions: BGC-823, 96 h
pIC50: −log10 of the molar value.
The following compounds are listed with their measured pIC50 values.

Some compounds with known pIC50 results, for comparison:
[
  {
    "COMPOUND": "C/C=C(/C)C(=O)O[C@H]1[C@H](OC(=O)/C(C)=C\\C)[C@]2(CO)[C@H](O)C[C@]3(C)C(=CC[C@@H]4[C@@]5(C)CC[C@H](O[C@@H]6O[C@H](C(=O)O)[C@@H](O)[C@H](O[C@@H]7OC[C@H](O)[C@H](O)[C@H]7O)[C@H]6O)[C@@](C)(CO)[C@@H]5CC[C@]43C)[C@@H]2CC1(C)C [GORDONOSIDE A]",
    "OBS_VALUE": "< 5.00"
  },
  {
    "COMPOUND": "C/C=C(/C)C(=O)O[C@H]1[C@H](OC(=O)/C(C)=C\\C)[C@]2(CO)[C@H](O)C[C@]3(C)C(=CC[C@@H]4[C@@]5(C)CC[C@H](O[C@@H]6O[C@H](C(=O)O)[C@@H](O)[C@H](O[C@@H]7OC[C@H](O)[C@H](O)[C@H]7O)[C@H]6O)C(C)(C)[C@@H]5CC[C@]43C)[C@@H]2CC1(C)C [GORDONOSIDE C]",
    "OBS_VALUE": 5.60
  },
  {
    "COMPOUND": "C/C=C(/C)C(=O)O[C@H]1[C@H](OC(=O)/C(C)=C\\C)[C@]2(CO)[C@H](O)C[C@]3(C)C(=CC[C@@H]4[C@@]5(C)CC[C@H](O[C@@H]6O[C@H](C(=O)O)[C@@H](O)[C@H](O[C@@H]7OC[C@H](O)[C@H](O)[C@H]7O)[C@H]6O)[C@@](C)(C(=O)OC)[C@@H]5CC[C@]43C)[C@@H]2CC1(C)C [GORDONOSIDE F]",
    "OBS_VALUE": "< 5.00"
  }
]

Now for another entry.
Complete the entry with pIC50 for C/C=C(/C)C(=O)O[C@H]1[C@H](OC(=O)/C(C)=C\C)[C@]2(CO)[C@H](OC(C)=O)C[C@]3(C)C(=CC[C@@H]4[C@@]5(C)CC[C@H](O[C@@H]6O[C@H](C(=O)O)[C@@H](O)[C@H](O[C@@H]7OC[C@H](O)[C@H](O)[C@H]7O)[C@H]6O)C(C)(C)[C@@H]5CC[C@]43C)[C@@H]2CC1(C)C [GORDONOSIDE D] < 5.00

###

tested on: Bel-7402; assay: Cytotoxicity against human Bel7402 cells after 96 hrs by MTT assay; format: functional, cell-based; conditions: Bel-7402, 96 h
OBSERVABLE: pIC50
Give only the number. pIC50 is defined as minus log10 of concentration in molar units.

Complete the entry with pIC50 for C/C=C(/C)C(=O)O[C@H]1[C@H](OC(=O)/C(C)=C\C)[C@]2(CO)[C@H](O)C[C@]3(C)C(=CC[C@@H]4[C@@]5(C)CC[C@H](O[C@@H]6O[C@H](C(=O)O)[C@@H](O)[C@H](O[C@@H]7OC[C@H](O)[C@H](O)[C@H]7O)[C@H]6O)[C@@](C)(CO)[C@@H]5CC[C@]43C)[C@@H]2CC1(C)C [GORDONOSIDE A] 5.33
